Please go through the items and note down their TGI.
system: A498 renal; assay: NCI tumour cell line growth inhibition, 48 h

Please give the documented TGI of O=C(Nc1cnn2ccc(N3CCC[C@@H]3c3cc(F)ccc3F)nc12)N1CC[C@H](O)C1
> 100 µM

Please give the documented TGI of CC1(C)OCC2OC3([C@H](O)CCO)OC(C)(C)OC3C2O1 (some centres undefined)
> 100 µM

Please give the documented TGI of CO/N=C1\CCC2(O)C3Cc4ccc(O)c5c4C2(CCN3CC2CC2)[C@H]1O5 (some centres undefined)
> 100 µM

Please give the documented TGI of COc1ncc(-c2nc3c(n2C(C)C)[C@H](c2ccc(Cl)cc2)N(c2cc(Cl)cn(C)c2=O)C3=O)c(OC)n1
84.6 µM

Please give the documented TGI of N=c1c2c3n(c4c(=O)n(-c5ccccc5)c(=S)n(c(=O)n1-c1ccccc1)c24)CCCCC3
> 100 µM

Please give the documented TGI of COC(=O)c1c2c(c(C)[n+]([O-])c1C)C(=O)C=C(NCc1cccc(OC)c1)C2=O
2.59 µM

Please give the documented TGI of CCc1cccc(C(C)C)c1NC(=O)C(=O)C(C(=O)C(=O)OC)c1nc2ccccc2[nH]c1=O (centres undefined)
> 100 µM

Please give the documented TGI of Oc1[nH]c2ccccc2c1N=NC1=NCCCCN1
> 100 µM

Please give the documented TGI of Nc1ccn([C@H]2C[C@@H](O)[C@@H](CO)S2)c(=O)n1
> 100 µM

Please give the documented TGI of CC(C)(C)OC(=O)C1=C(C(=O)OC(C)(C)C)SC2(S1)C(C(=O)OC(C)(C)C)=C(C(=O)OC(C)(C)C)Sc1c2ssc1=O
> 100 µM

Please give the documented TGI of COC(=O)c1ccccc1NC(=O)C(=O)CC(=O)c1ccccc1NC1=CC(=O)C(=O)c2ccccc21
> 56.2 µM

Please give the documented TGI of CN1CCN(c2ccc(-c3cnc4c(-c5csc6ccccc56)cnn4c3)cc2)CC1
> 15 µM

Please give the documented TGI of Cc1ccc(S(=O)(=O)N2CCC3(C(/C=C/c4ccccc4)=Nc4ccccc43)C2c2ccccc2)cc1 (centres undefined)
> 100 µM

Please give the documented TGI of CC1=C/C(=N/N2C(=O)/C(=C/c3ccc(Cl)cc3)N=C2c2ccccc2)CC(C)(C)C1
> 100 µM

Please give the documented TGI of O=C1CN(c2ccc(Cl)cc2)C(=O)CN1CCN1CC(=O)N(c2ccc(Cl)cc2)CC1=O
> 100 µM

Please give the documented TGI of CCOC(=O)/C=C1\SC(=Nc2ccc(C#N)cc2)N(CCN2C(=O)/C(=C/C(=O)OCC)SC2=Nc2ccc(C#N)cc2)C1=O
20.5 µM

Please give the documented TGI of CCCCn1c2c(c3ccccc3c1=O)C(=O)c1ccccc1-2
> 100 µM

Please give the documented TGI of COc1ccc(/C(Cl)=C(\C=O)c2ccc(F)cc2)cc1
52.7 µM

Please give the documented TGI of O=C1C(Cl)=C(Nc2ccc3cn[nH]c3c2)C(=O)c2ccccc21
8.9 µM

Please give the documented TGI of CC(C)(C)NC(NC(C)(C)C)=C(C(Cl)=C(Cl)Cl)[N+](=O)[O-]
> 100 µM

Please give the documented TGI of COC(=O)[C@H]1[C@H](C(=O)OC)[C@@H](C)c2c(ccc3c2[nH]c2ccccc23)[C@@H]1C
> 100 µM

Please give the documented TGI of Cc1cc(N(CCC#N)CCC#N)ccc1/C=C(\NC(=O)/C=C/c1ccccc1)NC(=O)Nc1ccc(Cl)cc1
> 100 µM

Please give the documented TGI of Cc1cc(S(=O)(=O)Nc2nc3ccsc3c(=O)n2Cc2ccco2)c(S)cc1Cl
> 100 µM

Please give the documented TGI of Cn1c(N2CCCC2)c(C=O)c(=O)n(C)c1=O
> 100 µM

Please give the documented TGI of O=C(O)CCC1COc2ccccc2O1 (centres undefined)
> 10 µM

Please give the documented TGI of O=[N+]([O-])c1ccc(/C=C/c2ccc(N=Nc3ccc(/C=C/c4ccc([N+](=O)[O-])cc4S(=O)(=O)O)c(S(=O)(=O)O)c3)cc2S(=O)(=O)O)c(S(=O)(=O)O)c1
> 100 µM

Please give the documented TGI of N#Cc1c[nH]n2ccnc12
> 100 µM

Please give the documented TGI of COC1=CC(=O)C(O)=C(C[C@@]2(C)[C@@H]3CCC[C@H](COC(=O)CCCCCNC(=O)OC(C)(C)C)[C@@]3(C)CC[C@@H]2C)C1=O
> 10 µM

Please give the documented TGI of O=c1nc2n(cc1/C=C\Br)C1CC(O)C(CO2)O1 (centres undefined)
> 100 µM
